Where do these numbers come from? They come from patent US5348953A.

# kinact/KI annotations
molecular target: Human Polymorphonuclear Leukocyte Elastase (Homo sapiens, UniProt P08246); construct: Crude extract of human polymorphonuclear leukocytes (PMN) containing elastase activity; from tissue; host or cells: human polymorphonuclear leukocytes (crude extract); experiment: Inhibition of human polymorphonuclear leukocyte elastase via hydrolysis of Boc-AAPAN or Boc-AAPVN; format: biochemical; settings: pH 7.5; second order rate constant for inactivation; Formula A, M n-propyl, R2 4-methyl (TABLE 1); read-out: kobs /[I]
Please answer in the form of a number followed by its unit of measurement.

{"COMPOUND": "CCC[C@@H](NC(=O)N1C(=O)C(CC)(CC)[C@@H]1OCC(=O)N(CC)CCN(CCOCC)C(C)C)c1ccc(C)cc1", "MEASURED": "195000 M⁻¹ s⁻¹"}
{"COMPOUND": "CCC[C@@H](NC(=O)N1C(=O)C(CC)(CC)[C@@H]1OCC(=O)N(C)CCN(CCOCC)C(C)C)c1ccc(C)cc1", "MEASURED": "140000 M⁻¹ s⁻¹"}
{"COMPOUND": "CCC[C@@H](NC(=O)N1C(=O)C(CC)(CC)[C@@H]1OCC(=O)N(CCN(CC)CCOC)C(C)C)c1ccc(C)cc1", "MEASURED": "250000 M⁻¹ s⁻¹"}

I'd like to know its kinact/KI. The compound in question is CCC[C@@H](NC(=O)N1C(=O)C(CC)(CC)[C@@H]1OCC(=O)N(CC)CCN(CC)CC)c1ccc(C)cc1 [Y=N(Et)CH2 CH2; R5=H; R7=Et; R8=Et]
177000 M⁻¹ s⁻¹

Another compound to look at: `CCC[C@@H](NC(=O)N1C(=O)C(CC)(CC)[C@@H]1OCC(=O)N(CC)CCN1CCOCC1)c1ccc(C)cc1`
245000 M⁻¹ s⁻¹

What do you have for `CCC[C@@H](NC(=O)N1C(=O)C(CC)(CC)[C@@H]1OCC(=O)N(CC)CC)c1ccc(C)cc1` ?
315000 M⁻¹ s⁻¹

* * *

target: Human Polymorphonuclear Leukocyte Elastase (Homo sapiens, UniProt P08246); construct: Crude extract of human polymorphonuclear leukocytes (PMN) containing elastase activity; from tissue; host or cells: human polymorphonuclear leukocytes (crude extract); test: Inhibition of human polymorphonuclear leukocyte elastase via hydrolysis of Boc-AAPAN or Boc-AAPVN; type: biochemical; conditions: pH 7.5; second order rate constant for inactivation; Formula A, M n-propyl, R2 4-methyl (TABLE 1); read-out: kobs /[I]
REPORTED PROPERTY: kinact/KI (M⁻¹ s⁻¹)
Kindly answer with a numeric value in M⁻¹ s⁻¹, unit omitted.

{"COMPOUND": "CCC[C@@H](NC(=O)N1C(=O)C(CC)(CC)[C@@H]1OCC(=O)N(CC)CCN(C)C)c1ccc(C)cc1 [Y=N(Et)CH2 CH2; R5=H; R7=Me; R8=Me]", "TESTED ON": "Human Polymorphonuclear Leukocyte Elastase (Homo sapiens, UniProt P08246)", "REPORTED PROPERTY": "kinact/KI", "READOUT UNIT": "M⁻¹ s⁻¹", "MEASURED": 120000}

Continue with the compound presented below.
If you can, please state the reported kinact/KI value of `CCC[C@@H](NC(=O)N1C(=O)C(CC)(CC)[C@@H]1OCC(=O)N(C)CCN(CCOC)CCOC)c1ccc(C)cc1` .
165000

* * *

Listed compounds paired with reported kinact/KI
target: Human Polymorphonuclear Leukocyte Elastase (Homo sapiens, UniProt P08246); construct: Crude extract of human polymorphonuclear leukocytes (PMN) containing elastase activity; from tissue; host or cells: human polymorphonuclear leukocytes (crude extract); assay: Inhibition of human polymorphonuclear leukocyte elastase via hydrolysis of Boc-AAPAN or Boc-AAPVN; type: biochemical; conditions: pH 7.5; second order rate constant; Formula A, M n-propyl, R4 piperazine amide with substituent Z; read-out: kobs /[I]
Just the number please, in M⁻¹ s⁻¹, no unit attached.

Some compounds with recorded kinact/KI:
{"COMPOUND": "CCC[C@@H](NC(=O)N1C(=O)C(CC)(CC)[C@@H]1OCC(=O)N1CCN(C)CC1)c1ccc2c(c1)OCO2 [R2=3,4-methylenedioxy-; R5=H; Z=--Me]", "TESTED ON": "Human Polymorphonuclear Leukocyte Elastase (Homo sapiens, UniProt P08246)", "kinact/KI / M⁻¹ s⁻¹": 530000}
{"COMPOUND": "CCC[C@@H](NC(=O)N1C(=O)C(CC)(CC)[C@@H]1OCC(=O)N1CCN(CCO)CC1)c1ccc(C)cc1 [R2=4-Me; R5=H; Z=CH2 CH2 OH]", "TESTED ON": "Human Polymorphonuclear Leukocyte Elastase (Homo sapiens, UniProt P08246)", "kinact/KI / M⁻¹ s⁻¹": 300000}
{"COMPOUND": "CCC[C@@H](NC(=O)N1C(=O)C(CC)(CC)[C@@H]1OCC(=O)N1CCN(C)CC1)c1ccc(C)cc1 [R2=4-Me; R5=H; Z=--Me]", "TESTED ON": "Human Polymorphonuclear Leukocyte Elastase (Homo sapiens, UniProt P08246)", "kinact/KI / M⁻¹ s⁻¹": 150000}
{"COMPOUND": "CCC[C@@H](NC(=O)N1C(=O)C(CC)(CC)[C@@H]1OCC(=O)N1CCNCC1)c1ccc2c(c1)OCO2 [R2=3,4-methylenedioxy-; R5=H; Z=H]", "TESTED ON": "Human Polymorphonuclear Leukocyte Elastase (Homo sapiens, UniProt P08246)", "kinact/KI / M⁻¹ s⁻¹": 515000}
{"COMPOUND": "CCC[C@@H](NC(=O)N1C(=O)C(CC)(CC)[C@@H]1OCC(=O)N1CCN(C2CC2)CC1)c1ccc2c(c1)OCO2", "TESTED ON": "Human Polymorphonuclear Leukocyte Elastase (Homo sapiens, UniProt P08246)", "kinact/KI / M⁻¹ s⁻¹": 560000}

Report kinact/KI for CCC[C@@H](NC(=O)N1C(=O)C(CC)(CC)[C@@H]1OCC(=O)N1CCN(C2CC2)CC1)c1ccc(C)cc1 [R2=4-Me; R5=H; Z=cyclopropyl] please.
225000

Lookup CCC[C@@H](NC(=O)N1C(=O)C(CC)(CC)[C@@H]1OCC(=O)N1CCNCC1)c1ccc(C)cc1 [R2=4-Me; R5=H; Z=H]
250000

* * *

Biological target: Human Polymorphonuclear Leukocyte Elastase (Homo sapiens, UniProt P08246)
Construct: Crude extract of human polymorphonuclear leukocytes (PMN) containing elastase activity; from tissue; host or cells: human polymorphonuclear leukocytes (crude extract)
Sequence (P08246 30-267): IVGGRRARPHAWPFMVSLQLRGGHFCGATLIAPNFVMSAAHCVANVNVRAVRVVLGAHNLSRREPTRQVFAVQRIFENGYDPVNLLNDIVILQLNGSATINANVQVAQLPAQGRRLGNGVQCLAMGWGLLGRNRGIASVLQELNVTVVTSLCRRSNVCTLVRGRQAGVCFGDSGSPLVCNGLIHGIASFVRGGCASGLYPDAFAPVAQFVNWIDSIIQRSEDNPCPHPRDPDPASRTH
Test: Inhibition of human polymorphonuclear leukocyte elastase via hydrolysis of Boc-AAPAN or Boc-AAPVN
Assay type: biochemical
Conditions: pH 7.5; second order rate constant for inactivation; Formula A, M n-propyl, R2 4-methyl (TABLE 1); read-out: kobs /[I]
REPORTED PROPERTY: log10(kinact/KI) (log10 of the value in M⁻¹ s⁻¹)
Values reflect log10 of reported kinact/KI (M⁻¹ s⁻¹).

{"COMPOUND": "CCC[C@@H](NC(=O)N1C(=O)C(CC)(CC)[C@@H]1OCC(=O)NCCN1CCOCC1)c1ccc(C)cc1", "MEASURED": 5.06}
{"COMPOUND": "CCC[C@@H](NC(=O)N1C(=O)C(CC)(CC)[C@@H]1OCC(=O)NCCN(C(C)C)C(C)C)c1ccc(C)cc1", "MEASURED": 5.02}
{"COMPOUND": "CCC[C@@H](NC(=O)N1C(=O)C(CC)(CC)[C@@H]1O[C@@H](C)C(=O)NCCN(CC)CC)c1ccc(C)cc1", "MEASURED": 6.13}
{"COMPOUND": "CCC[C@@H](NC(=O)N1C(=O)C(CC)(CC)[C@@H]1OCC(=O)N(CCN(CC)CC)C(C)C)c1ccc(C)cc1", "MEASURED": 5.24}
{"COMPOUND": "CCC[C@@H](NC(=O)N1C(=O)C(CC)(CC)[C@@H]1OCC(=O)N(C)CCN(C)C)c1ccc(C)cc1", "MEASURED": 5.06}

Requested field: log10(kinact/KI). Item: `CCC[C@@H](NC(=O)N1C(=O)C(CC)(CC)[C@@H]1O[C@@H](C)C(=O)N(C)CCN(CC)CC)c1ccc(C)cc1`
6.26

Try this compound too: `CCC[C@@H](NC(=O)N1C(=O)C(CC)(CC)[C@@H]1O[C@@H](C)C(=O)NCCN(C)C)c1ccc(C)cc1`
6.02

Input `CCC[C@@H](NC(=O)N1C(=O)C(CC)(CC)[C@@H]1OCC(=O)N(CCC)CCN(CC)CC)c1ccc(C)cc1`
5.23

# repeat for `CCC[C@@H](NC(=O)N1C(=O)C(CC)(CC)[C@@H]1OCC(=O)N1CCOCC1)c1ccc(C)cc1`
5.60

And `CCC[C@@H](NC(=O)N1C(=O)C(CC)(CC)[C@@H]1OCC(=O)N(C)CCN(CC)CCOC)c1ccc(C)cc1` ?
5.04

Quick one: `CCC[C@@H](NC(=O)N1C(=O)C(CC)(CC)[C@@H]1OCC(=O)N(CCN(C)C)C(C)C)c1ccc(C)cc1`
5.24

Would you mind doing `CCC[C@@H](NC(=O)N1C(=O)C(CC)(CC)[C@@H]1OCC(=O)N(C)CCCN(C)C)c1ccc(C)cc1` as well?
5.06

One more compound: `CCC[C@@H](NC(=O)N1C(=O)C(CC)(CC)[C@@H]1OCC(=O)N(C)C)c1ccc(C)cc1`
5.10

Again, but for CCC[C@@H](NC(=O)N1C(=O)C(CC)(CC)[C@@H]1OCC(=O)N(CC)CCN(C(C)C)C(C)C)c1ccc(C)cc1 [Y=N(Et)CH2 CH2; R5=H; R7=iPr; R8=iPr]
5.28

Here is the next compound: CCC[C@@H](NC(=O)N1C(=O)C(CC)(CC)[C@@H]1O[C@@H](C)C(=O)N(CC)CCN(C)C)c1ccc(C)cc1 [Y=N(Et)CH2 CH2; R5=Me; R7=Me; R8=Me]
6.25

And for `CCC[C@@H](NC(=O)N1C(=O)C(CC)(CC)[C@@H]1OCC(=O)N(C)CCN(CC)CC)c1ccc(C)cc1` ?
5.18

Follow-up entry: `CCC[C@@H](NC(=O)N1C(=O)C(CC)(CC)[C@@H]1OCC(=O)N(CCC)CCN(CCOCC)C(C)C)c1ccc(C)cc1`
5.27

Same for `CCC[C@@H](NC(=O)N1C(=O)C(CC)(CC)[C@@H]1O[C@@H](C)C(=O)N(C)CCN(C)C)c1ccc(C)cc1`
6.22

// same read-out, input: `CCC[C@@H](NC(=O)N1C(=O)C(CC)(CC)[C@@H]1OCC(=O)N(CC)CCN(CC)CCOC)c1ccc(C)cc1`
5.27

Consider next the compound CCC[C@@H](NC(=O)N1C(=O)C(CC)(CC)[C@@H]1OCC(=O)N(C)CCN1C(C)CCCC1C)c1ccc(C)cc1 (stereo partly shown) in the same way.
4.90

Could you do the same for `CCC[C@@H](NC(=O)N1C(=O)C(CC)(CC)[C@@H]1OCC(=O)N(C)CCN(C(C)C)C(C)C)c1ccc(C)cc1` , please?
5.06

Same lookup for `CCC[C@@H](NC(=O)N1C(=O)C(CC)(CC)[C@@H]1OCC(=O)NCCN(CC)CC)c1ccc(C)cc1` , please.
5.34
